# Tested on: rabbit LDL
# method.notes: Amount of thiobarbituric acid reactive substances (TBARS) formed on Cu2+ oxidation of LDL
# Format: biochemical
# run.conditions: Compound conc. 10^-5 M; 5 µM of Cu²⁺ added to rabbit LDL, followed by heating; 10 µM
Mark Fulfilled for Formed TBARS (%) under 20%, Not fulfilled if at or over.

CCCCCCCCOc1ccc(CNc2cc(OC)c(OC)c(OC)c2)cc1 ... Fulfilled
COc1cc(CNc2cc(OC)c(OC)c(OC)c2)cc(OC)c1OC ... Not fulfilled
COc1cc(NCc2ccc([N+](=O)[O-])cc2)cc(OC)c1OC ... Fulfilled

Exam item: Dear colleague, could you confirm whether Formed TBARS (%) of `COc1cc(NCCCCc2ccccc2)cc(OC)c1OC` falls below 20%? Thanks.
Marked response: Fulfilled

Exam item: Further, for `COc1cc(N(CC=C(C)C)CC=C(C)C)cc(OC)c1OC` ?
Marked response: Not fulfilled

Exam item: Further, for `COc1cc(NCCCc2ccccc2)cc(OC)c1OC` ?
Marked response: Fulfilled

Exam item: Further, for `COc1cc(N(C)Cc2ccccc2)cc(OC)c1OC` ?
Marked response: Not fulfilled

Exam item: Further, for COc1cc(NCc2ccc(OC/C=C(\C)CCCC(C)CCCC(C)CCCC(C)C)cc2)cc(OC)c1OC (stereo not drawn) ?
Marked response: Not fulfilled

Exam item: Further, for C=CCC(Nc1cc(OC)c(OC)c(OC)c1)c1ccccc1 (stereo not drawn) ?
Marked response: Fulfilled

###

# System: rabbit LDL
# method.notes: Amount of thiobarbituric acid reactive substances (TBARS) formed on Cu2+ oxidation of LDL
# Assay type: biochemical
# run.conditions: Compound conc. 10^-5 M; 5 µM of Cu²⁺ added to rabbit LDL, followed by heating; 10 µM
value.kind: Formed TBARS (%)
Give bare numbers, in %.

Hi! Can you tell me Formed TBARS (%) for each of these molecules?
1. C=CCC(Nc1cc(OC)c(OC)c(OC)c1)C1CCCCC1 (stereo not drawn)
2. COc1cc(NC(CC(C)C)c2ccccc2)cc(OC)c1OC (stereo not drawn)
3. COc1cc(NCc2ccccc2SCCC(C)CCCC(C)C)cc(OC)c1OC (stereo not drawn)
4. CCOC(=O)CCCCCCOc1ccc(CNc2cc(OC)c(OC)c(OC)c2)cc1
5. COc1cc(NCc2nccn2CC=C(C)CCC=C(C)CCC=C(C)C)cc(OC)c1OC
6. COc1cc(NCc2ccccc2)cc(OC)c1OC

Marked response:
1: 7; 2: 15; 3: 17; 4: 13; 5: 13; 6: 33

Hi! Can you tell me Formed TBARS (%) for each of these molecules?
1. COc1cc(NCC=C(C)C)cc(OC)c1OC
2. COc1cc(NCc2ccccc2OCCC(C)CCCC(C)C)cc(OC)c1OC (stereo not drawn)
3. CCCCCCCCCCCCNc1cc(OC)c(OC)c(OC)c1
4. CCCCC(Nc1cc(OC)c(OC)c(OC)c1)C1CCCCC1 (stereo not drawn)

Marked response:
1. 33
2. 15
3. 29
4. 8

Hi! Can you tell me Formed TBARS (%) for each of these molecules?
1. C=CCN(Cc1ccco1)c1cc(OC)c(OC)c(OC)c1
2. COc1cc(NC(CCc2ccccc2)C(C)C)cc(OC)c1OC (stereo not drawn)

Marked response:
1. 43
2. 15

Hi! Can you tell me Formed TBARS (%) for each of these molecules?
1. COc1cc(NCc2ccc(OC(C)(C)C(=O)O)cc2)cc(OC)c1OC
2. COc1cc(NCc2ccc(CNc3cc(OC)c(OC)c(OC)c3)cc2)cc(OC)c1OC
3. COc1cc(NCc2cccnc2)cc(OC)c1OC
4. CCCCCCOc1ccc(CNc2cc(OC)c(OC)c(OC)c2)cc1
5. CCCC(Nc1cc(OC)c(OC)c(OC)c1)C1CCCCC1 (stereo not drawn)

Marked response:
1: 59; 2: 12; 3: 47; 4: 16; 5: 8

Hi! Can you tell me Formed TBARS (%) for each of these molecules?
1. CCCCCCCCC(Nc1cc(OC)c(OC)c(OC)c1)c1ccccc1 (stereo not drawn)
2. COC(=O)c1ccc(CNc2cc(OC)c(OC)c(OC)c2)cc1
3. CCCCCCCCCCCCN(CCCCCCCCCCCC)c1cc(OC)c(OC)c(OC)c1
4. COc1cc(NCc2ccc(Br)cc2)cc(OC)c1OC
5. COc1cc(NCc2ccc(OCCCCCCC(=O)O)cc2)cc(OC)c1OC
6. COc1cc(NCC2CCCC2)cc(OC)c1OC
7. CCCCC(Nc1cc(OC)c(OC)c(OC)c1)c1ccccc1 (stereo not drawn)
8. COc1cc(N(CC2CCCCC2)CC2CCCCC2)cc(OC)c1OC

Marked response:
19
17
93
12
16
15
17
23

Hi! Can you tell me Formed TBARS (%) for each of these molecules?
1. COc1cc(NCc2ccccc2OC/C=C(\C)CCC=C(C)C)cc(OC)c1OC
2. COc1cc(NCc2ccc(CO)cc2)cc(OC)c1OC
3. COc1cc(NCCc2ccccc2)cc(OC)c1OC
4. COc1cc(NC2CCOc3ccccc32)cc(OC)c1OC (stereo not drawn)

Marked response:
[13, 35, 18, 18]

Exam item: Consider the molecule `COc1cc(NCC2CCCCC2)cc(OC)c1OC` and give its measured Formed TBARS (%).
Marked response: 8

Cited source: patent EP0515684A1
